# experimental_details: in vivo
# experimental_setup: female, athymic nude, mouse, po, 16 mg/kg
property_name: Kp

Which Kp reading was recorded for the compound CC(=O)c1c(C)c2cnc(Nc3ccc(N4CCNCC4)cn3)nc2n(C2CCCC2)c1=O ?
~6

###

# experimental_details: Ganetespib plasma and tumor PK in tumor-bearing mice
# Format: in vivo, mouse
# experimental_setup: female, athymic nude, mouse, tumor, iv, 150 mg/kg
property_name: half-life (h)
Give your result in h as a bare value.

State the recorded half-life for this entry: CC(C)c1cc(-c2n[nH]c(=O)n2-c2ccc3c(ccn3C)c2)c(O)cc1O [ganetespib]
8.42

###

# experimental_details: in vivo
# experimental_setup: female, athymic nude, mouse, po, 0.1 mg/kg
property_name: Kp
Give only the figure.

Reported Kp for CC(=O)Nc1cccc(-n2c(=O)n(C3CC3)c(=O)c3c(Nc4ccc(I)cc4F)n(C)c(=O)c(C)c32)c1 : what is it?
5.49

###

# experimental_details: Abemaciclib plasma and tumor PK in tumor-bearing mice
# experimental_setup: female, athymic nude, mouse, tumor, po, 50 mg/kg
property_name: half-life
Don't forget the unit after the number, please.

I am curious: what half-life value has been reported for CCN1CCN(Cc2ccc(Nc3ncc(F)c(-c4cc(F)c5nc(C)n(C(C)C)c5c4)n3)nc2)CC1 [abemaciclib] ?
5.98 h

###

# experimental_details: Abemaciclib plasma and tumor PK in tumor-bearing mice
# experimental_setup: female, athymic nude, mouse, plasma, po, 50 mg/kg
property_name: half-life

Which half-life value belongs to CCN1CCN(Cc2ccc(Nc3ncc(F)c(-c4cc(F)c5nc(C)n(C(C)C)c5c4)n3)nc2)CC1 ?
5.2 h

###

# experimental_details: in vivo
# experimental_setup: female, athymic nude, mouse, po, 16 mg/kg
property_name: half-life (h)
Entry rule: numbers only, all in h.

Could you tell me which half-life is on file for CC(=O)c1c(C)c2cnc(Nc3ccc(N4CCNCC4)cn3)nc2n(C2CCCC2)c1=O [palbociclib] ?
2.61
